# Test system: Hepatotoxicity
OBSERVABLE: HepSE_hepatic failure
One number for each entry.

In: Short answer please: HepSE_hepatic failure, Hepatotoxicity, entry Clc1ccc(C(Cn2ccnc2)OCc2csc3c(Cl)cccc23)c(Cl)c1 (configuration not stated) [SERTACONAZOLE]
Out: 0

In: Same lookup for CCOC(=O)O[C@]1(C(=O)COC(=O)CC)CC[C@H]2[C@@H]3CCC4=CC(=O)C=C[C@]4(C)[C@H]3[C@@H](O)C[C@@]21C [PREDNICARBATE] , please.
Out: 0

In: Same lookup for Cc1onc(-c2ccccc2)c1-c1ccc(S(N)(=O)=O)cc1 [VALDECOXIB] , please.
Out: 0

I have 5 compounds here; please give me HepSE_hepatic failure for each one.
1. Nc1ccn([C@@H]2O[C@H](CO)[C@@H](O)C2(F)F)c(=O)n1 [GEMCITABINE]
2. CN(C)CCC=C1c2ccccc2COc2ccccc21 [DOXEPIN]
3. CCOC(=O)Nc1ccc2c(c1)N(C(=O)CCN1CCOCC1)c1ccccc1S2 [MORICIZINE]
4. CN1C(C(=O)Nc2ccccn2)=C(O)c2ccccc2S1(=O)=O [PIROXICAM]
5. O=C1[C@H](CC[C@H](O)c2ccc(F)cc2)[C@@H](c2ccc(O)cc2)N1c1ccc(F)cc1 [EZETIMIBE]

Out:
1
0
0
1
0

----------
Test system Hepatotoxicity, HepSE_hepatic failure listed for each of the compounds.
Give bare numbers.

In: Looking for the measured HepSE_hepatic failure of Cc1cnc(NC(=O)C2=C(O)c3ccccc3S(=O)(=O)N2C)s1 , can you help?
Out: 1

In: Same lookup for Nc1nc2ccc(OC(F)(F)F)cc2s1 , please.
Out: 0

I have 5 compounds here; please give me HepSE_hepatic failure for each one.
1. CC1=C(/C=C/C(C)=C/C=C/C(C)=C/C(=O)O)C(C)(C)CCC1
2. COc1c(C)c2c(c(O)c1C/C=C(\C)CCC(=O)O)C(=O)OC2
3. CC(C)/N=c1\cc2n(-c3ccc(Cl)cc3)c3ccccc3nc-2cc1Nc1ccc(Cl)cc1
4. C=C(CC)C(=O)c1ccc(OCC(=O)O)c(Cl)c1Cl
5. NCCCC(N)(C(=O)O)C(F)F (stereo not given)

Out:
0
0
0
0
0

----------
Test system Hepatotoxicity, HepSE_hepatitis listed for each of the molecules.
Give bare numbers.

Record excerpt, results attached:
In: Looking for the measured HepSE_hepatitis of NC12CC3CC(CC(C3)C1)C2 , can you help?
Out: 0

In: Same lookup for Nc1ncnc2c1ncn2[C@@H]1O[C@H](CO)[C@@H](O)[C@H]1O , please.
Out: 0

I have 6 molecules here; please give me HepSE_hepatitis for each one.
1. Cn1c(=O)c2c(ncn2C)n(C)c1=O
2. Cc1ccnc2c1NC(=O)c1cccnc1N2C1CC1
3. Cc1onc(-c2ccccc2)c1-c1ccc(S(N)(=O)=O)cc1
4. O=C[C@H](O)[C@@H](O)[C@@H](O)[C@H](O)CO
5. C[C@@H](c1ncncc1F)[C@](O)(Cn1cncn1)c1ccc(F)cc1F
6. COC(=O)C1=C(C)NC(C)=C(C(=O)OCCN(C)Cc2ccccc2)C1c1cccc([N+](=O)[O-])c1 (stereo not drawn)

Out:
1. 0
2. 1
3. 1
4. 0
5. 1
6. 0

----------
Can you tell me HepSE_bilirubinemia for the items I'm about to list?
# System: Hepatotoxicity
Numbers only.

I have 6 compounds here; please give me HepSE_bilirubinemia for each one.
1. C[C@H]1O[C@@H](O[C@H]2[C@@H](O)C[C@H](O[C@H]3[C@@H](O)C[C@H](O[C@H]4CC[C@@]5(C)[C@H](CC[C@@H]6[C@@H]5C[C@@H](O)[C@]5(C)[C@@H](C7=CC(=O)OC7)CC[C@]65O)C4)O[C@@H]3C)O[C@@H]2C)C[C@H](O)[C@@H]1O
2. CC(C)[C@H](N)C(=O)OCCOCn1cnc2c(=O)[nH]c(N)nc21
3. COC(=O)[C@@H]1CC2=CC(=O)CC[C@]2(C)[C@@]23O[C@@H]2C[C@@]2(C)[C@@H](CC[C@@]24CCC(=O)O4)[C@H]13
4. CC(CCc1ccc(O)cc1)NCCc1ccc(O)c(O)c1 (stereo unspecified)
5. CN1C(C(=O)Nc2ccccn2)=C(O)c2ccccc2S1(=O)=O
6. C[C@@H]1C[C@H]2[C@@H]3CCC4=CC(=O)C=C[C@]4(C)[C@@]3(Cl)[C@@H](O)C[C@]2(C)[C@@]1(O)C(=O)CCl

Out:
[0, 0, 0, 0, 0, 0]

----------
Test system Hepatotoxicity, HepSE_elevated liver function tests listed for each of the compounds.
One number for each entry.

In: Looking for the measured HepSE_elevated liver function tests of Cl.N [AMMONIUM CHLORIDE] , can you help?
Out: 0

In: Same lookup for CN1C2CCCC1CC(NC(=O)c1nn(C)c3ccccc13)C2 (stereo not given) , please.
Out: 0

In: Same lookup for CCCN(CCC)S(=O)(=O)c1ccc(C(=O)O)cc1 , please.
Out: 0

I have 2 compounds here; please give me HepSE_elevated liver function tests for each one.
1. O=C(c1ccc(OCCN2CCCCC2)cc1)c1c(-c2ccc(O)cc2)sc2cc(O)ccc12
2. N[C@@H](C(=O)N[C@@H]1C(=O)N2C(C(=O)O)=C(Cl)CS[C@H]12)c1ccccc1 [CEFACLOR ANHYDROUS]

Out:
[0, 0]

----------
Test system Hepatotoxicity, HepSE_hepatomegaly listed for each of the molecules.
Numbers only.

In: Looking for the measured HepSE_hepatomegaly of Nc1nnc(-c2cccc(Cl)c2Cl)c(N)n1 [LAMOTRIGINE] , can you help?
Out: 0

I have 3 molecules here; please give me HepSE_hepatomegaly for each one.
1. CC(C)(C)NC(=O)[C@H]1CC[C@H]2[C@@H]3CC[C@H]4NC(=O)C=C[C@]4(C)[C@H]3CC[C@]12C [FINASTERIDE]
2. CO/N=C1\CN(c2nc3c(cc2F)c(=O)c(C(=O)O)cn3C2CC2)CC1CN (centres undefined) [GEMIFLOXACIN]
3. CCCN1C[C@H](CSC)C[C@@H]2c3cccc4[nH]cc(c34)C[C@H]21 [PERGOLIDE]

Out:
1: 0; 2: 0; 3: 1

----------
# Test system: Hepatotoxicity
Can you tell me HepSE_hepatic failure for the items I'm about to list?
Answers are plain numbers.

Record excerpt, results attached:
In: Short answer please: HepSE_hepatic failure, Hepatotoxicity, entry CCCCCCC(C)(C)c1cc(O)c2c(c1)OC(C)(C)C1CCC(=O)CC21 (stereo not given)
Out: 0

In: Same lookup for Nc1nc(/C(=C/CC(=O)O)C(=O)N[C@@H]2C(=O)N3C(C(=O)O)=CCS[C@H]23)cs1 , please.
Out: 0

In: Same lookup for NCC1(CC(=O)O)CCCCC1 , please.
Out: 1

In: Same lookup for C[N+](C)(C)CC(=O)O , please.
Out: 0

In: Same lookup for COc1ccccc1OCC(O)COC(N)=O (stereo not given) , please.
Out: 0

I have 6 molecules here; please give me HepSE_hepatic failure for each one.
1. COC(=O)C1=C(C)NC(C)=C(C(=O)OC(C)C)C1c1cccc2nonc12 (stereo not given)
2. CC#CCC(C)[C@H](O)/C=C/[C@@H]1[C@H]2C/C(=C/CCCC(=O)O)C[C@H]2C[C@H]1O (stereo not given in full)
3. CC(=O)[C@]1(O)Cc2c(O)c3c(c(O)c2[C@@H](O[C@H]2C[C@H](N)[C@H](O)[C@H](C)O2)C1)C(=O)c1ccccc1C3=O
4. CNS(=O)(=O)Cc1ccc2[nH]cc(CCN(C)C)c2c1
5. CCc1c2c(nc3ccc(OC(=O)N4CCC(N5CCCCC5)CC4)cc13)-c1cc3c(c(=O)n1C2)COC(=O)[C@]3(O)CC
6. CCCCCCCCCCC[C@@H](C[C@@H]1OC(=O)[C@H]1CCCCCC)OC(=O)[C@H](CC(C)C)NC=O

Out:
1. 0
2. 0
3. 0
4. 0
5. 0
6. 0

I have 2 molecules here; please give me HepSE_hepatic failure for each one.
1. CC[C@H](C)C[C@H](C)CCCCCCCCC(=O)N[C@H]1C[C@@H](O)[C@@H](NCCN)NC(=O)[C@@H]2[C@@H](O)CCN2C(=O)[C@H]([C@H](O)CCN)NC(=O)[C@H]([C@H](O)[C@@H](O)c2ccc(O)cc2)NC(=O)[C@@H]2C[C@@H](O)CN2C(=O)[C@H]([C@@H](C)O)NC1=O
2. C#CC1(O)CCC2C3CCC4=CC(=O)CCC4C3C(=C)CC21CC (stereo not given)

Out:
1
0

I have 2 molecules here; please give me HepSE_hepatic failure for each one.
1. CO[C@H]1/C=C/O[C@@]2(C)Oc3c(C)c(O)c4c(O)c(c5c(nc6cc(C)ccn65)c4c3C2=O)NC(=O)/C(C)=C\C=C\[C@H](C)[C@H](O)[C@@H](C)[C@@H](O)[C@@H](C)[C@H](OC(C)=O)[C@@H]1C
2. CCc1cccc2c3c([nH]c12)C(CC)(CC(=O)O)OCC3 (stereo not given)

Out:
[0, 1]
